B1: acidic domain of Homo sapiens APLF (APLF^AD, residues 450 to 511), wild type [Homo sapiens] / stoichiometric mixture of full-length Drosophila melanogaster H2A-H2B and H3-H4 (octamer-mix) [Drosophila melanogaster] (parent complex)
chain 1: DEDNDNVGQPNEYDLNDSFLDDEEEDYEPTDEDSDWEPGKEDEEKEDVEELLKEAKRFMKRK
chain 2: not shown
chain 3: not shown
chain 4: not shown
chain 5: not shown

- Variants of: B1
- assay.info: ITC
property.measured: Kd (nM)

chain 1 Y13A, chain 1 F19A, chain 1 Y27A, chain 1 W36A: 794

[P] chain 1 Y27A, chain 1 W36A
[Q] chain 1 Y13A, chain 1 F19A
Hey, between P and Q which has a smaller measured Kd? Write down the label of the entry you select.
P

Source listed as paper PMC9328677.
